system: ATP; test: switch fluorescence ratio, 500 uM ATP over buffer (Cy3 cluster intensity, sum of 5 cycles each) (fold (ratio)); higher = stronger signal-on switching upon ATP binding; sequences stand for … in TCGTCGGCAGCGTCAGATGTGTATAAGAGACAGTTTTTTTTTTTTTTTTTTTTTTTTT…TC; conditions: aptamer strand: ATP DNA aptamer (quencher-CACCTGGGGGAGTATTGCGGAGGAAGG + anchor), 100 nM annealed; ATP concentration: 500 uM;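 note: ATP exposure 15 min at 22 °C before imaging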
MEASURED_QUANTITY: switch fluorescence ratio

CGGATACGGT 0.997
AAGAAGATTT 1
TTTTTAGGCC 0.999
TTATTCGTCC 1.04
CAGTAGTGTC 0.985

----------
tested on: ATP; assay: switch fluorescence ratio, 500 uM ATP over buffer (Cy3 cluster intensity, sum of 5 cycles each) (fold (ratio)); higher = stronger signal-on switching upon ATP binding; sequences stand for … in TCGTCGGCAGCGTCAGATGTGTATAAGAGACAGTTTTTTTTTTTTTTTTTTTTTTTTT…TC; conditions: aptamer strand: ATP DNA aptamer (quencher-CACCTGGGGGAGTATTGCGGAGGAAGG + anchor), 100 nM annealed; ATP concentration: 500 uM;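 note: ATP exposure 15 min at 22 °C before imaging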
Collected switch fluorescence ratio values appear next to each entry.
MEASURED_QUANTITY: switch fluorescence ratio

ATGGTCATAA 0.993
TTTGTACTTT 1.01
TGACGTTGAG 0.987
TGGGCAATTT 1.09
CAGAGGTTCC 1.05
CGTACTGTAA 1.18
TATAACGGTT 1.03
ACGACAGATG 0.961
AGGCCTCAGG 0.99
CGCAGAGCAA 2.54
TTTCGGCACT 1.01
GGTTAAGTCT 0.946
TGCATAATCT 1.04
GTGTGTCTCT 0.999
CCGTTTGGGA 0.998
GTTTTTGGTG 1
AAGGGTCACC 0.999
TGAGGTACTA 0.999
GGTTCTGATC 0.981
GGTGGCAAAT 1.01
ACTTTTTAGT 0.986
ATTAAGAGGC 1.02
GTTATTGAGT 1.01
AATATTTAAC 0.983
GGAGGGGTTA 0.978

----------
tested on: ATP; assay: switch fluorescence ratio, 500 uM ATP over buffer (Cy3 cluster intensity, sum of 5 cycles each) (fold (ratio)); higher = stronger signal-on switching upon ATP binding; sequences stand for … in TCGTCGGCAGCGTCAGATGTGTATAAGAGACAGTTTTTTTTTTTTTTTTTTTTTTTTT…TC; settings: aptamer strand: ATP DNA aptamer (quencher-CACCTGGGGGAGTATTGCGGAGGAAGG + anchor), 100 nM annealed; ATP concentration: 500 uM;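 note: ATP exposure 15 min at 22 °C before imaging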
Collected switch fluorescence ratio values appear next to each entry.
MEASURED_QUANTITY: switch fluorescence ratio

CACGCATTTT 1.12
TGATTATAGA 0.983
ATTAACTGAA 1.04
ACAATTGACT 1.1
GGGATATGAT 0.983
TTGTATCCTG 0.964
CGGTCAGGGT 0.995
CTGTTTTGTG 1.01
GCGTCGTCGG 1.01
AGAAGGCAAC 1.01
TCGGGTTGTA 1
GGAATGGTCG 0.977
GGGAATCGCT 0.973
TATTCGGATT 0.984
ACTGGCTGTT 1.03
GGACTAGAGC 1.01
TCGGGGGAAT 1.11
TCAGTGCTGT 1
GATGCTGTGG 0.958
CGGACTCATT 1.09
GAGAAATTAT 0.977
ACGGAGGGTT 0.992
TAGTCAGGGG 0.985
